# assayDetails: self-splicing fitness, log relative to wild type (ln ratio); higher = more splicing; Tetrahymena group I intron in knt gene, E. coli kanamycin selection, DiMSum; sequences stand for … in CUCUCU…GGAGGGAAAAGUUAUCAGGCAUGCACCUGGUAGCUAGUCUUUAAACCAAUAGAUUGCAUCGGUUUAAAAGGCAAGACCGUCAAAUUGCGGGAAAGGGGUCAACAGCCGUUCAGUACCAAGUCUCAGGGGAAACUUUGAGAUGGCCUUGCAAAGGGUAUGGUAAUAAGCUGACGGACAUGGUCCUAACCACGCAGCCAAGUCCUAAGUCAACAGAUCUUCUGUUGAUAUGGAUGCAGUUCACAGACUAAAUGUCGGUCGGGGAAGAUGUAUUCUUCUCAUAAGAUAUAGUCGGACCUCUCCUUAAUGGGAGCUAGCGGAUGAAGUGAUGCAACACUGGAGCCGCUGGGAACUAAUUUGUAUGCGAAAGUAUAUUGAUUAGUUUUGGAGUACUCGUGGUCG;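 also: selection with 25 µg/mL kanamycin versus none on LB agar overnight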
# studyConditions: 30 °C
measure: self-splicing fitness (ln)
Give bare numbers.

| sequenceInput | self-splicing fitness (ln) |
| --- | --- |
| GCUCAGCAAUAUUACGCCGG | -2.03 |

Value sought for every listed sequence: self-splicing fitness (ln).
1. CGCUAGCAAUAUUACGAAUG
2. CUCGAGCAAUAUUACGCUCG
3. GACGAGCAAUAUUACGGCAU

Solution:
[-1.33, -2.72, -1.4]

Parameter requested: self-splicing fitness (ln). Apply to each item below.
1. CGUGAGCAAUAUUACGUAUA
2. UCCCAGCAAUAUUACGGUAA
3. GAACAGCAAUAUUACGAGGU
4. CUGCAGCAAUAUUACGUGUG
5. CACCAGCAAUAUUACGAACG
6. GGGUAGCAAUAUUACGAUUU

Solution:
1. -2.71
2. 0.0812
3. -3.08
4. -1.65
5. 0.223
6. -0.0881

Hi! Can you tell me self-splicing fitness (ln) for each of these sequences?
1. UAACAGCAAUAUUACGGGAU
2. AUCUAGCAAUAUUACGCCCC
3. AAAGAGCAAUAUUACGACAG

Solution:
-3.08
-0.911
-3.56

---

# assayDetails: self-splicing fitness, log relative to wild type (ln ratio); higher = more splicing; Tetrahymena group I intron in knt gene, E. coli kanamycin selection, DiMSum; sequences stand for … in CUCUCU…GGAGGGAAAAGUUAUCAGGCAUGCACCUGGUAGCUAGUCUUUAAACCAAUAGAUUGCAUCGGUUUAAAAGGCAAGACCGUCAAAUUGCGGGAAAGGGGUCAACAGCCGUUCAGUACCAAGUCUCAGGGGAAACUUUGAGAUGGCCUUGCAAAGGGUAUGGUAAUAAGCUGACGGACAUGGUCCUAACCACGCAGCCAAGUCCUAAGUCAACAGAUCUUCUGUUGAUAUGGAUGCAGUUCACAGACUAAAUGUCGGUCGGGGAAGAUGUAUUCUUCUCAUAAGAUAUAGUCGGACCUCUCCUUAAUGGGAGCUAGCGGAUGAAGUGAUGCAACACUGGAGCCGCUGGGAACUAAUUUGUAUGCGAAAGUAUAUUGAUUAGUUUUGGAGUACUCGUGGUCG
# studyConditions: 37 °C
For each of the sequences below, state its self-splicing fitness (ln).

| sequenceInput | reportedResult |
| --- | --- |
| UAACAGCAAUAUUACGUACG | -0.193 |

Quick request: self-splicing fitness (ln) for each listed item, please.
1. CAUGAGCAAUAUUACGCGAA
2. GGAGAGCAAUAUUACGGGCG
3. UUUUAGCAAUAUUACGCCGG
4. CAGAAGCAAUAUUACGUGUG
5. GUUUAGCAAUAUUACGCGUC
6. GUAAAGCAAUAUUACGUAAU

Solution:
1: -1.57; 2: -2.37; 3: -0.833; 4: -2.19; 5: -0.647; 6: -0.314

Exercise: Please look up its self-splicing fitness (ln): CCACAGCAAUAUUACGGCUG
Solution: -2.48

---

# assayDetails: self-splicing fitness, log relative to wild type (ln ratio); higher = more splicing; Tetrahymena group I intron in knt gene, E. coli kanamycin selection, DiMSum; sequences stand for … in CUCUCU…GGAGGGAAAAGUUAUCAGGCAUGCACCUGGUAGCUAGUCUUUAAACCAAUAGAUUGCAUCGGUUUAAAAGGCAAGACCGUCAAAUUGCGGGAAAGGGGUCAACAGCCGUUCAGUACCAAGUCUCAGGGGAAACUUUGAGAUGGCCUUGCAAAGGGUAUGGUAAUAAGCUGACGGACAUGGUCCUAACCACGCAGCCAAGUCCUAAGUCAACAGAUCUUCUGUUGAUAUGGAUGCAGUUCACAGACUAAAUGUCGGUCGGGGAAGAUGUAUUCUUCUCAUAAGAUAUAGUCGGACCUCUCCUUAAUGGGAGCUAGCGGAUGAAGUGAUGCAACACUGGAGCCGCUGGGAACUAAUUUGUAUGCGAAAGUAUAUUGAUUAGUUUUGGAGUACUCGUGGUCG
# studyConditions: 30 °C
# if value of self-splicing fitness (ln) reaches -2, tag T; if it stays below, tag F

Example entries and their recorded answers appear below.
| sequenceInput | answerLabel |
| --- | --- |
| AACUAGCAAUAUUACGUCGG | F |
| UUUCAGCAAUAUUACGCCGG | T |
| CCGGAGCAAUAUUACGUCGC | F |

Exercise: Does GGAAAGCAAUAUUACGGGUA have a reported self-splicing fitness (ln) of at least -2?
Solution: T

---

# assayDetails: self-splicing fitness, log relative to wild type (ln ratio); higher = more splicing; Tetrahymena group I intron in knt gene, E. coli kanamycin selection, DiMSum; sequences stand for … in CUCUCU…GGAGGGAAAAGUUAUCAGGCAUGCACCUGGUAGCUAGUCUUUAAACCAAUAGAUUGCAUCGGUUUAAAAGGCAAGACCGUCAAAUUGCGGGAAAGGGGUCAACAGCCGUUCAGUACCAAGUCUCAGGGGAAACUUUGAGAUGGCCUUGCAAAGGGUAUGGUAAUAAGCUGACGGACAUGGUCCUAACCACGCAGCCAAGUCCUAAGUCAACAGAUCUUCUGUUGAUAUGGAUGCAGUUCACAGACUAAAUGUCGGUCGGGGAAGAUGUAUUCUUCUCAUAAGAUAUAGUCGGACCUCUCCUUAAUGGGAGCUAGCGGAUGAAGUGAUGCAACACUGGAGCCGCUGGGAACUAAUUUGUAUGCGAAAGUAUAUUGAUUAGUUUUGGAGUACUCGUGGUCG
# studyConditions: 30 °C
measure: self-splicing fitness (ln)

Example entries begin here.
| sequenceInput | measure | reportedResult |
| --- | --- | --- |
| GGUGAGCAAUAUUACGUCCU | self-splicing fitness (ln) | -0.834 |
| CUAUAGCAAUAUUACGGGGU | self-splicing fitness (ln) | -4.1 |
| GAUUAGCAAUAUUACGCCCA | self-splicing fitness (ln) | -0.748 |
| UUAGAGCAAUAUUACGCAAG | self-splicing fitness (ln) | -1.18 |
| AGGAAGCAAUAUUACGUCGG | self-splicing fitness (ln) | -2.61 |

Please give self-splicing fitness (ln) for each item listed below.
1. CAAUAGCAAUAUUACGCAAG
2. UAAUAGCAAUAUUACGUUGG

Solution:
1. -1.19
2. -3.11

---

Consider the following sequences; for each one, report its self-splicing fitness (ln).
# assayDetails: self-splicing fitness, log relative to wild type (ln ratio); higher = more splicing; Tetrahymena group I intron in knt gene, E. coli kanamycin selection, DiMSum; sequences stand for … in CUCUCU…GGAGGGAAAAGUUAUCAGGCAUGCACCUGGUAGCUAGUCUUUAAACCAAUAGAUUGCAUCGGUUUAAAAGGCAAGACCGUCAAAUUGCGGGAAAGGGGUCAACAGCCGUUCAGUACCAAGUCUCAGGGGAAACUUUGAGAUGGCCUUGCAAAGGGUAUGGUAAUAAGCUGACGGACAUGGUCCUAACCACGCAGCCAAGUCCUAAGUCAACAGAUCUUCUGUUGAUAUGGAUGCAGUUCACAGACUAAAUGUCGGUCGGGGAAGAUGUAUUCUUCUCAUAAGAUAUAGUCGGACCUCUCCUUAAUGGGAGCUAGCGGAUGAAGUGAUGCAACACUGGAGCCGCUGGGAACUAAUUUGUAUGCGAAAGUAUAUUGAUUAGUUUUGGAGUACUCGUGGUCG
# studyConditions: 37 °C

For every item below, please supply its self-splicing fitness (ln).
1. CUGCAGCAAUAUUACGCCCG
2. GGAAAGCAAUAUUACGGGGA
3. CUCGAGCAAUAUUACGGUCG
4. GAGUAGCAAUAUUACGCGGA
5. CUCCAGCAAUAUUACGUUUC
6. UGUGAGCAAUAUUACGGGGG
7. GGGAAGCAAUAUUACGUUUA
8. CGAGAGCAAUAUUACGUGUC

Solution:
1. 0.148
2. -2.9
3. -2.38
4. -2.06
5. -3.12
6. -2.35
7. -1.51
8. -2.17

Provenance of the data: the supplement of paper PMC7877785
